Data provenance is ChEMBL document CHEMBL1255199.

Examples of molecules with documented Papp follow.
test: Passive transcellular permeability of the compound at pH 7.4 by PAMPA; type: ADME; conditions: read-out: permeability
metric-name: Papp (×10⁻⁶ cm/s)

>>> val("COc1ccc2c(=O)c(Cc3ccccc3)c(C)[nH]c2c1")
240
>>> val("COc1cccc2c(=O)c(-c3ccccc3)c(C)[nH]c12")
37
>>> val("COc1cccc2c(=O)c(Cc3ccccc3)c(C)[nH]c12")
125
>>> val("Cc1[nH]c2c(Cl)cccc2c(=O)c1Cc1ccccc1")
412
>>> val("Cc1[nH]c2ccc(Cl)cc2c(=O)c1Br")
87.7
>>> val("CCc1c(C)[nH]c2cc(OC)c(Br)cc2c1=O")
75.1
>>> val("COc1cc2[nH]c(C)c(C3CCCCC3)c(=O)c2cc1Cl")
630
>>> val("COc1cc2[nH]c(C)c(/C=C/C(=O)OC(C)(C)C)c(=O)c2cc1Cl")
261
>>> val("COc1ccc2c(c1)c(=O)c(Cc1ccccc1)c(C)n2C")
268
>>> val("Cc1[nH]c2c(Cl)cc(Cl)cc2c(=O)c1-c1ccccc1")
232
>>> val("Cc1cc(=O)c2ccccc2[nH]1")
1.54
>>> val("COc1cc2[nH]c(C)c(-c3ccccc3)c(=O)c2cc1F")
124
>>> val("COc1c(Cc2ccccc2)c(C)nc2ccc(Cl)cc12")
268
>>> val("Cc1[nH]c2ccccc2c(=O)c1/C=C/c1ccccc1")
224
>>> val("COc1cc2[nH]c(C)cc(=O)c2cc1Cl")
25.2
>>> val("Cc1[nH]c2ccccc2c(=O)c1C1CCCCC1")
230
>>> val("Cc1[nH]c2ccccc2c(=O)c1/C=C/c1cccc([N+](=O)[O-])c1")
602
>>> val("Cc1[nH]c2cc(Cl)cc(Cl)c2c(=O)c1-c1ccccc1")
320
>>> val("Cc1[nH]c2ccccc2c(=O)c1Cc1ccccc1")
102
>>> val("C=C(CCCCC)c1c(C)[nH]c2cc(OC)c(Cl)cc2c1=O")
755
>>> val("Cc1ccc2[nH]c(C)c(Br)c(=O)c2c1")
42.2
>>> val("COc1cc2[nH]c(C)c(Br)c(=O)c2cc1Cl")
152
>>> val("COc1cccc2[nH]c(C)c(-c3ccccc3)c(=O)c12")
333
>>> val("Cc1[nH]c2cccc(Cl)c2c(=O)c1Cc1ccccc1")
251
>>> val("Cc1[nH]c2ccc(Br)cc2c(=O)c1Br")
95.2
